Taken from paper PMC12596195.

- MEASURED_TARGET: T1, Dmc1-WT (Saccharomyces cerevisiae, UniProt P25453 1-334)
- T1 sequence: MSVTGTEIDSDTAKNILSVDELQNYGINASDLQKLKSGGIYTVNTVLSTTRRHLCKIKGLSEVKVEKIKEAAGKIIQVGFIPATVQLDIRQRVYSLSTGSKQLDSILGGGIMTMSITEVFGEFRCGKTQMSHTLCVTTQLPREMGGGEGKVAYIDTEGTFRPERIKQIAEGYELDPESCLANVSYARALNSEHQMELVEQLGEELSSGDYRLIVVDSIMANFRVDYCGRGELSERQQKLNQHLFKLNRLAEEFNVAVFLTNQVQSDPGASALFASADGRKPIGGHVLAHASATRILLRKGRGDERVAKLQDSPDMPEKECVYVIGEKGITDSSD
- ASSAY_EXPLANATION: fluorescence polarization; ATP, 1 mM Ca2+; FP: 25 mM HEPES pH 7.5, 1 mM Mg2+, 1 mM ATP, 1 mM DTT, 50 mM NaCl (100 mM in Fig. 3), 100 ug/ml BSA, 0.02% NP-40, 70 uM Ca2+ or as indicated, 3 nM 84-nt ssDNA
- SETUP_CONDITIONS: protein: recombinant; tags: N-terminal 6xHis; label: 5' Alexa Fluor 488
MEASURED_PROPERTY: Kd (µM)
The figure you give is taken to be in µM; do not add the unit.

For record 84 nt-ssDNA (ssDNA) DNA: GGTAGCGGTTGGGTGAGTGGTGGGGAGGGTCGGGAGGTGGCGTAGAAACATGATAGGAATGTGAATGAATGAAGTACAAGTAAA the listed Kd is 0.164
